Biological target: Nurr1 (Homo sapiens)
Construct: expressed in transfected cells; host or cells: HEK293T
Sequence (P43354 360-595 limits assumed): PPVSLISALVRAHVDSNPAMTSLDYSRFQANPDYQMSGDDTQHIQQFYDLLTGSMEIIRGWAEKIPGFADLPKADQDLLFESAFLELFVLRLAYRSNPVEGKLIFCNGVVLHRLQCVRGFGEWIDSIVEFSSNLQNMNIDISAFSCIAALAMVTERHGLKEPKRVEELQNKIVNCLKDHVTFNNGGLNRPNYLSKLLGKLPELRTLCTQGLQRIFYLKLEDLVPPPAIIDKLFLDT
Test: Gal4-Nurr1 hybrid reporter gene assay
Format: cell-based
Details: supplementary csv; max. activation in %
Provide the reported efficacy_NR4A2 of each item.
The number alone won't do; follow it with the unit.

// query Requested field: efficacy_NR4A2. Item: [2H]C([2H])([2H])Oc1cccc(-c2c(F)c(F)c(NC(=O)c3ccsc3-c3noc(=O)[nH]3)c(F)c2F)c1 [compound 18]
// result 186%

// query What measured efficacy_NR4A2 goes with [2H]C([2H])([2H])Oc1cccc(-c2c(F)c(F)c(NC(=O)c3cscc3-c3nn[nH]n3)c(F)c2F)c1 [compound 22] ?
// result 250%

// query If you can, please state the reported efficacy_NR4A2 value of [2H]C([2H])([2H])Oc1cccc(-c2c(F)c(F)c(NC(=O)c3ccccc3-c3nn[nH]n3)c(F)c2F)c1 [compound 31] .
// result 190%

// query // returns reported efficacy_NR4A2 for input [2H]C([2H])([2H])Oc1cccc(-c2c(F)c(F)c(NC(=O)c3ccsc3S(=O)(=O)NC(C)=O)c(F)c2F)c1 [compound 14]
// result 189%

// query Which value of efficacy_NR4A2 has been reported for [2H]C([2H])([2H])Oc1cccc(-c2c(F)c(F)c(NC(=O)c3cscc3-c3noc(=O)[nH]3)c(F)c2F)c1 [compound 21] in the records?
// result 220%

// query Fill in the blank: the reported efficacy_NR4A2 of [2H]C([2H])([2H])Oc1cccc(-c2c(F)c(F)c(NC(=O)C3=C(c4nn[nH]n4)COC3)c(F)c2F)c1 [compound 30] is ____.
// result 200%

// query I would be grateful if you could share the reported efficacy_NR4A2 for [2H]C([2H])([2H])Oc1cccc(-c2c(F)c(F)c(NC(=O)c3cscc3-c3nc(=O)on3C)c(F)c2F)c1 [compound 24] .
// result 190%

----------
Please provide measured selectivity index DHODH/Nurr1 for the entries that follow.
Biological target: Nurr1 (Homo sapiens)
Construct: expressed in transfected cells; host or cells: HEK293T
Test: Gal4-Nurr1 hybrid reporter gene assay
Type: cell-based
Conditions: IC50(DHODH) / EC50(Nurr1)
Form field (numeric): enter value without unit.

// query Give its selectivity index DHODH/Nurr1 value. Item: [2H]C([2H])([2H])Oc1cccc(-c2cc(F)c(NC(=O)C3=C(c4noc(=O)[nH]4)CCC3)c(F)c2)c1 [compound 8]
// result 9

// query Please give the measured selectivity index DHODH/Nurr1 for this compound: [2H]C([2H])([2H])Oc1cccc(-c2c(F)c(F)c(NC(=O)c3cscc3-c3nn[nH]n3)c(F)c2F)c1 [compound 22]
// result 3.9

Data provenance is paper PMC7617969.
